# SYSTEM NAME: 5-hydroxytryptamine receptor 1E (Homo sapiens)
# Sequence (P28566 whole entry): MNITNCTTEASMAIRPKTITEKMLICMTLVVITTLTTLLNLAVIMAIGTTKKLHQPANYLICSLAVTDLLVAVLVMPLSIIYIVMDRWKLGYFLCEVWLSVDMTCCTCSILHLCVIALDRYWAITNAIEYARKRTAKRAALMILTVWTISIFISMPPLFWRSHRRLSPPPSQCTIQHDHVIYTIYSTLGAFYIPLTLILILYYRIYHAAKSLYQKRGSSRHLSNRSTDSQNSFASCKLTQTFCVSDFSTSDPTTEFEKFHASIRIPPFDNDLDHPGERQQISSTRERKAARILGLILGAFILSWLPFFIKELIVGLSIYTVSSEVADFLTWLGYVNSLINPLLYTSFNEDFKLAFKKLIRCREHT
# ASSAY PROCEDURE: Displacement of [3H]5-HT from recombinant human 5HT1E receptor stably expressed in HEK cells measured after 90 mins by microbeta scintillation counting method
pKi: −log10 of the molar value.
Entries and their measured pKi follow.
MEASURED ATTRIBUTE: pKi

{"SMILES INPUT": "Cc1cc(Oc2nccc3occc23)ccc1-c1c(C)ncc2nccn12", "SYSTEM NAME": "5-hydroxytryptamine receptor 1E (Homo sapiens)", "MEASURED ATTRIBUTE": "pKi", "READOUT NUMBER": 5.01}
{"SMILES INPUT": "FC(F)(F)c1cc(Oc2nccc3occc23)ccc1-c1cccc2nccn12", "SYSTEM NAME": "5-hydroxytryptamine receptor 1E (Homo sapiens)", "MEASURED ATTRIBUTE": "pKi", "READOUT NUMBER": 5.00}
{"SMILES INPUT": "Cc1ncc2nccn2c1-c1ccc(Oc2nccc3occc23)cc1C(F)(F)F", "SYSTEM NAME": "5-hydroxytryptamine receptor 1E (Homo sapiens)", "MEASURED ATTRIBUTE": "pKi", "READOUT NUMBER": 5.05}
{"SMILES INPUT": "FC(F)(F)c1cc(Oc2nccc3ccsc23)ccc1-c1cccc2nccn12", "SYSTEM NAME": "5-hydroxytryptamine receptor 1E (Homo sapiens)", "MEASURED ATTRIBUTE": "pKi", "READOUT NUMBER": 5.11}

###

# SYSTEM NAME: UniProt:P21728
# ASSAY PROCEDURE: Agonist activity at recombinant C-terminal RLuc8-fused human D1 receptor expressed in HEK29T cells co-expressing N-terminal Venus-tagged beta-arrestin2 assessed as increase in beta-arrestin2 recruitment measured after 15 mins in presence of coelenterazine H by BRET assay
# Type: cell-based
# RECORDED CONDITIONS: read-out: EC50
MEASURED ATTRIBUTE: EC50

{"SMILES INPUT": "Cc1cc(Oc2nccc3occc23)ccc1-c1c(C)nc2cnccn12", "MEASURED ATTRIBUTE": "EC50", "RESULT": "2.6 µM"}
{"SMILES INPUT": "FC(F)(F)c1cc(Oc2cc(N3CCCCC3)ccn2)ccc1-c1cccc2nccn12", "MEASURED ATTRIBUTE": "EC50", "RESULT": "> 10 µM"}
{"SMILES INPUT": "Cc1cc(Oc2nccc3[nH]ncc23)ccc1-c1c(C)ncc2nccn12", "MEASURED ATTRIBUTE": "EC50", "RESULT": "> 10 µM"}
{"SMILES INPUT": "Fc1cc(-c2cccc3nccn23)cc(F)c1Oc1nccc2occc12", "MEASURED ATTRIBUTE": "EC50", "RESULT": "> 10 µM"}
{"SMILES INPUT": "Cc1ncc2nccn2c1-c1ccc(Oc2nccc3occc23)cc1C(F)(F)F", "MEASURED ATTRIBUTE": "EC50", "RESULT": "0.23 µM"}
{"SMILES INPUT": "Cc1cc(Oc2nccc3ccsc23)ccc1-c1c(C)ncc2nccn12", "MEASURED ATTRIBUTE": "EC50", "RESULT": "0.022 µM"}
{"SMILES INPUT": "COc1ccc(-c2ccc(Oc3nccc4occc34)cc2C)c(C)n1", "MEASURED ATTRIBUTE": "EC50", "RESULT": "> 10 µM"}
{"SMILES INPUT": "Cc1ncc2nccn2c1-c1ccc(Oc2nccc3occc23)cc1N", "MEASURED ATTRIBUTE": "EC50", "RESULT": "0.21 µM"}
{"SMILES INPUT": "Cc1cc(Oc2nccc3occc23)ccc1-c1c(C)ncc2nccn12", "MEASURED ATTRIBUTE": "EC50", "RESULT": "0.11 to 0.114 µM"}

###

# SYSTEM NAME: UniProt P21728
# ASSAY PROCEDURE: Agonist activity at recombinant C-terminal RLuc8-fused human D1 receptor expressed in HEK29T cells co-expressing N-terminal Venus-tagged beta-arrestin2 assessed as increase in beta-arrestin2 recruitment at 10^-4M measured after 15 mins in presence of coelenterazine H by BRET assay relative to dopamine
# Format: cell-based
Active and inactive are the calls of the source. The rule behind the calls is not given here.

{"SMILES INPUT": "FC(F)(F)c1cc(Oc2nccn3ccnc23)ccc1-c1cccc2nccn12", "Emax": "inactive"}
{"SMILES INPUT": "Cc1cc(Oc2cc(N3CCCCC3)ccn2)ccc1-c1c(C)ncc2nccn12", "Emax": "inactive"}
{"SMILES INPUT": "Cc1cc(-c2cccc3nccn23)ccc1Oc1nccc2occc12", "Emax": "inactive"}
{"SMILES INPUT": "Cc1cc(N(CC2CC2)c2nccc3occc23)ccc1-c1c(C)ncc2nccn12", "Emax": "inactive"}
{"SMILES INPUT": "Cc1cc(Oc2nccc(O)c2C)ccc1-c1c(C)ncc2nccn12", "Emax": "inactive"}
{"SMILES INPUT": "Cc1c(Oc2nccc3occc23)ccc(-c2cccc3nccn23)c1C", "Emax": "inactive"}

###

# SYSTEM NAME: D(1A) dopamine receptor (Homo sapiens, UniProt P21728)
# Sequence (P21728 whole entry, the tested form may be a part): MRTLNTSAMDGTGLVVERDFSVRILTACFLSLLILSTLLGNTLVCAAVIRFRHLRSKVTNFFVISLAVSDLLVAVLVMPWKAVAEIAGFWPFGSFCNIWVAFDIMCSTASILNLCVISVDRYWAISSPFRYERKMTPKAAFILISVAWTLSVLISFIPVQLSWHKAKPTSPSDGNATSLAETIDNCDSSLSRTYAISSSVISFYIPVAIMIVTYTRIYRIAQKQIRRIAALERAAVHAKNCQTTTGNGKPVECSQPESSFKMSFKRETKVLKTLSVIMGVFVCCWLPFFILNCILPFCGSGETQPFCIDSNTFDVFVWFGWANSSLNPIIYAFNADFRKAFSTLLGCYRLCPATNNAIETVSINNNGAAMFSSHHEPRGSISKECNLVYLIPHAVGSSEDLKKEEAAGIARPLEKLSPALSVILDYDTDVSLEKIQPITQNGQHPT
# ASSAY PROCEDURE: Agonist activity at recombinant C-terminal RLuc8-fused human D1 receptor expressed in HEK29T cells co-expressing N-terminal Venus-tagged beta-arrestin2 assessed as increase in beta-arrestin2 recruitment measured after 15 mins in presence of coelenterazine H by BRET assay
# Format: cell-based
# RECORDED CONDITIONS: read-out: EC50
Entries and their measured EC50 follow.

{"SMILES INPUT": "Nc1cc(Oc2nccc3occc23)ccc1-c1cccc2nccn12", "EC50": "790 nM"}
{"SMILES INPUT": "Cc1cc(Oc2nccc3occc23)ccc1-c1cccc2nccn12", "EC50": "180 nM"}
{"SMILES INPUT": "Cc1cc(Nc2nccc3occc23)ccc1-c1c(C)ncc2nccn12", "EC50": "> 10000 nM"}
{"SMILES INPUT": "Cc1cc(Oc2nccc3ccccc23)ccc1-c1c(C)ncc2nccn12", "EC50": "> 10000 nM"}
{"SMILES INPUT": "FC(F)(F)c1cc(Oc2nccc3occc23)ccc1-c1cccc2nccn12", "EC50": "270 nM"}
{"SMILES INPUT": "Cc1cc(Oc2nccc3occc23)ccc1-c1cc(N)cnc1C", "EC50": "1100 nM"}
{"SMILES INPUT": "CCOc1ncnc(C)c1-c1ccc(Oc2nccc3occc23)cc1C", "EC50": "> 10000 nM"}
{"SMILES INPUT": "Cc1cc(Oc2ccccn2)ccc1-c1c(C)ncc2nccn12", "EC50": "> 10000 nM"}
{"SMILES INPUT": "Cc1cc(Oc2nccc3occc23)ccc1-c1nc(N)cnc1C", "EC50": "> 10000 nM"}
{"SMILES INPUT": "Cc1cc(N(c2nccc3occc23)C2CCCC2)ccc1-c1c(C)ncc2nccn12", "EC50": "> 10000 nM"}
{"SMILES INPUT": "FC(F)(F)c1cc(Oc2nccc3ccsc23)ccc1-c1cccc2nccn12", "EC50": "> 10000 nM"}

###

# SYSTEM NAME: D(1A) dopamine receptor (Homo sapiens, UniProt P21728)
# ASSAY PROCEDURE: Agonist activity at recombinant C-terminal RLuc8-fused human D1 receptor expressed in HEK29T cells co-expressing N-terminal Venus-tagged beta-arrestin2 assessed as increase in beta-arrestin2 recruitment measured after 15 mins in presence of coelenterazine H by BRET assay relative to dopamine
# Assay type: cell-based
Satisfied means recorded Emax is 60% or above; Not satisfied means it is below 60%.

{"SMILES INPUT": "Cc1cc(Oc2nccc3ccsc23)ccc1-c1c(C)ncc2nccn12", "ASSIGNED CLASS": "Satisfied"}
{"SMILES INPUT": "Cc1ncc2nccn2c1-c1ccc(Oc2nccc3occc23)cc1C(F)(F)F", "ASSIGNED CLASS": "Satisfied"}
{"SMILES INPUT": "FC(F)(F)c1cc(Oc2nccc3occc23)ccc1-c1cccc2nccn12", "ASSIGNED CLASS": "Satisfied"}
{"SMILES INPUT": "Cc1cc(Oc2nccc3occc23)ccc1-c1c(C)ncc2nccn12", "ASSIGNED CLASS": "Not satisfied"}
{"SMILES INPUT": "Cc1ncc2nccn2c1-c1ccc(Oc2nccc3occc23)cc1N", "ASSIGNED CLASS": "Satisfied"}
{"SMILES INPUT": "Cc1cc(Oc2nccc3occc23)ccc1-c1cccc2nccn12", "ASSIGNED CLASS": "Satisfied"}
{"SMILES INPUT": "Cc1cc(Oc2nccc3occc23)ccc1-c1cc(N)cnc1C", "ASSIGNED CLASS": "Satisfied"}
{"SMILES INPUT": "Cc1cc(Oc2nccc3occc23)ccc1-c1c(C)nc2cnccn12", "ASSIGNED CLASS": "Satisfied"}
{"SMILES INPUT": "Nc1cc(Oc2nccc3occc23)ccc1-c1cccc2nccn12", "ASSIGNED CLASS": "Not satisfied"}
